assayed.target: GST-TIE2 (intracellular domains of human TIE2) (Homo sapiens)
Sequence (Q02763 762-1104): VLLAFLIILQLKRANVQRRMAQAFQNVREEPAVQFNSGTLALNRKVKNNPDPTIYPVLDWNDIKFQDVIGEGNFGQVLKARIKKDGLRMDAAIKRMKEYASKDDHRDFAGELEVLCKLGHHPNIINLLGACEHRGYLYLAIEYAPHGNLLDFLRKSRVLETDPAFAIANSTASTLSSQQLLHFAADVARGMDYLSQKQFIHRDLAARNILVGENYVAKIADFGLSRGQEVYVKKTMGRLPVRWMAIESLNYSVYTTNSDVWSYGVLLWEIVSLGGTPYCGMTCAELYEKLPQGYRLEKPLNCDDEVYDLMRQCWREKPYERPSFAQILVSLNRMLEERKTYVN
method.notes: TIE-2 Enzyme Assay (TIE2-E2), LANCE method
experimental.context: read-out: TIE2 PIC50 TIE2-E2 assay
Assign IC50 to each entry below.

>>> reported("Cn1nc(-c2ccc(NC(=O)Nc3cc(C(C)(C)C)on3)c(F)c2)c2cnc(NCCCN3CCOCC3)nc21 [Example 134]")
"≤ 39.8 nM"

Give IC50 for all molecules that follow.
1. CN1CCC(Nc2ncc3c(-c4ccc(NS(=O)(=O)c5cccc(Cl)c5Cl)cc4)nn(C)c3n2)CC1 [Example 68]
2. Cn1cccc1CCNc1ncc2c(-c3ccc(NC(=O)Nc4cc(C(F)(F)F)ccc4F)cc3)nn(C)c2n1 [Example 101]
3. Cn1nc(-c2ccc(NC(=O)Nc3cc(C(F)(F)F)ccc3F)cc2)c2cnc(NCc3cccnc3)nc21 [Example 144]

100 to 1000 nM
≤ 39.8 nM
100 to 1000 nM
